TESTED_SYSTEM: human glucagon receptor (Homo sapiens, UniProt P47871)
Sequence (P47871 26-477): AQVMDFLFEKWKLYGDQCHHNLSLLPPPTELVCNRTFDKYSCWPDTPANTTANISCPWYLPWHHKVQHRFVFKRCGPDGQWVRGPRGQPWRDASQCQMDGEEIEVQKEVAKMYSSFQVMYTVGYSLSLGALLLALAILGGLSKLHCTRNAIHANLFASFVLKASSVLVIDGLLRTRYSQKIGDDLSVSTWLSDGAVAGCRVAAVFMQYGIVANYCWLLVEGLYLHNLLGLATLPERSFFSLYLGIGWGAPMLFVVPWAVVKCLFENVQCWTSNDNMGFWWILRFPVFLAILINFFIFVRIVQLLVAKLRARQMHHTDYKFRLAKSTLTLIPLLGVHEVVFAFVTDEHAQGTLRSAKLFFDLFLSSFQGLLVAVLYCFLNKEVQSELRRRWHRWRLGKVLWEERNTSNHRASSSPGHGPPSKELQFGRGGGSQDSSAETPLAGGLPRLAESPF
// reported pIC50 for each item listed
The value called pIC50 is obtained by taking minus log10 of the concentration in mol/L.

> print(dat)
                                   molecule  value.observed
1  CCC[C@H](c1ccc(C(=O)NCC(F)(F)C(=O)O)cc1)C(c1ccc(Cl)cc1)c1ccc(F)c2ccccc12 (stereo partly drawn)            7.01

For CCC[C@H](c1ccc(C(=O)Nc2nnn[nH]2)cc1)C(c1ccc(Cl)cc1)c1ccc(F)c2ccccc12 (stereo partly drawn) the molecule record lists pIC50 as 8.12

Notebook: CCCC(c1ccc(C(=O)NCCC(=O)O)cc1)C(c1ccc(Cl)cc1)c1c(Cl)cc(OC)c2c(F)cccc12 (stereo not drawn) , pIC50 read as 7.28

For record CCC[C@H](c1ccc(C(=O)NC[C@H](O)C(=O)O)cc1)C(c1ccc(Cl)cc1)c1ccc2cc(OC)ccc2c1 (stereo partly drawn) the listed pIC50 is 8.77

# pIC50 of CCC[C@H](c1ccc(C(=O)NCCS(=O)(=O)O)cc1)C(c1ccc(Cl)cc1)c1ccc(F)c2ccccc12 (stereo partly drawn) = 8.47

So for CCC[C@H](c1ccc(C(=O)NCc2nnn[nH]2)cc1)C(c1ccc(Cl)cc1)c1ccc(F)c2ccccc12 (stereo partly drawn) , the logged pIC50 turned out to be 8.40
